// provenance: PubChem BioAssay

protocol notes: HepG2 cell viability effects, profiling panel, calcein-AM fluorescence, 48 h, basal (AID 1164); further: test concentration not given here
test parameters: higher = more signal

compound	z-score
CC(C)[Si]1(C(C)C)O[C@@H](c2ccccc2)c2cc(C3CC3)nc(-c3ccc(Oc4ccccc4)cc3)c21	0.0626
C=C(COC)/C(=C/C[C@H](OC(C)=O)c1ccc(OCCO)cc1)c1cnc2ccccc2c1	-0.141
CCCC=C(CCC)[C@@H](NS(=O)(=O)c1ccc(-c2ccccc2)cc1)c1ccc(C(=O)OC)cc1	-1.52
C[C@H]1NC(=O)[C@@H](C)NC(=O)[C@@]23C(=O)N[C@@H](Cc4ccccc4)C2[C@H](C)[C@@]2(C)O[C@H]2C3/C=C/C/C=C\CNC1=O (stereo partly drawn)	0.205
CO[C@H]1COC(=O)CC=C[C@@H](C)COC(=O)[C@@H](C)NC(=O)CC=C[C@@H]1C	1.37
CO[C@@H]1COC(=O)CC=C[C@@H](C)[C@H](OC)COC(=O)CC=C[C@H]1C	1.14
CO[C@@H]1COC(=O)[C@H](C)NC(=O)CC=C[C@@H](C)[C@H](OC)COC(=O)[C@H](C)NC(=O)CC=C[C@H]1C	1.01
C=CC[C@]1(C(=O)O)N=C(c2ccc(OCCCO)cc2)O[C@H]1c1ccccc1	0.0696
